Would you kindly list IC50 for each of these compounds?
Biological target: CDK9/cyclin T (Homo sapiens, UniProt P50750)
Sequence (P50750 whole entry): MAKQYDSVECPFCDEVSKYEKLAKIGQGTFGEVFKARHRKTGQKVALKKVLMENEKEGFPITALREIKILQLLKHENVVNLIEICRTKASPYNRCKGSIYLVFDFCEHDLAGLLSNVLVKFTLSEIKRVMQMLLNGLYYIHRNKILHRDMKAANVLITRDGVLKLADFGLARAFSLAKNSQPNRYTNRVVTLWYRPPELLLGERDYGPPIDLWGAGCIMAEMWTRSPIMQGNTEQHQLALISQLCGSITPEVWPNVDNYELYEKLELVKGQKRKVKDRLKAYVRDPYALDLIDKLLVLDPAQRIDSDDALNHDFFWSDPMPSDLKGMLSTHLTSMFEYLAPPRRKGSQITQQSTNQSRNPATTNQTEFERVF
Sequence (O60563 whole entry partner): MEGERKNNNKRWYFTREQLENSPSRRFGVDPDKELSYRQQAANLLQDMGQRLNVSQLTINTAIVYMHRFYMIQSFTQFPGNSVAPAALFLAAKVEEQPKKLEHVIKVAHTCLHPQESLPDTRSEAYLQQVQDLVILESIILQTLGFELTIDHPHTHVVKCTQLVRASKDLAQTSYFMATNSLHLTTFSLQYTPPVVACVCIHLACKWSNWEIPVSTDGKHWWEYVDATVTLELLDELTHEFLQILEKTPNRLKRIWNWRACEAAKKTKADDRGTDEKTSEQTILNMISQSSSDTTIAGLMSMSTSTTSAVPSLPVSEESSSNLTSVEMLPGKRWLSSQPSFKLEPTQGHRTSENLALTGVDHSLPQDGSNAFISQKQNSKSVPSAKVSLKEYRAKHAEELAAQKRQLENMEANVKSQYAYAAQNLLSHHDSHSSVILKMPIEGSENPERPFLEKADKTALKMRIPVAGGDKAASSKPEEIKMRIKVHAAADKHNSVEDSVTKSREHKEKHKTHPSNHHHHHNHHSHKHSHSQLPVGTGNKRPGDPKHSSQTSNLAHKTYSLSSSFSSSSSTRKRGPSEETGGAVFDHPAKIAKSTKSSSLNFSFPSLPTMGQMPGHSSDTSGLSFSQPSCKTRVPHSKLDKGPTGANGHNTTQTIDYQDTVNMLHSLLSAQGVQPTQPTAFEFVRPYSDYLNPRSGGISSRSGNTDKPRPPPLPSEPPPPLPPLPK
Assay: Protein kinase assay
Conditions: IC50 CDK9/cyclin T, 15 μmol/L ATP
The reply should contain only the number, in nM.

Input: What does the data say about its IC50? Entry: COc1cc(/C=C2\N=C(N)NC2=O)ccc1O [PAC12, polyandrocarpamine A]
Output: 900

Input: What does the data say about its IC50? Entry: NC1=N/C(=C\c2ccc(O)c(O)c2)C(=O)N1 [PAC2, polyandrocarpamine B]
Output: 2000

====

Target: CK1δ/ε
Experiment: Protein kinase assay
Type: biochemical, porcine
Conditions: 15 μmol/L ATP; listed as 1
readout_kind: IC50 (µM)
The reply should contain only the number, in µM.

Input: What does the data say about its IC50? Entry: COc1cc(/C=C2\N=C(N)NC2=O)ccc1O
Output: 5.2
